# System: T-47D breast
# PROTOCOL TEXT: NCI-60 one-dose screen, 48 h
# CONDITIONS USED: 10 µM unless noted
Compounds without any hit were thinned out: in the full panel of roughly 83,000, 20% have a hit. Active and inactive are the calls of the source. Rule for the calls: active = growth percent below 10; inactive = the rest.
Labels: True (active), False (inactive)

MOLECULE	CAT
C=C1C(=O)O[C@H]2[C@H]1CC/C(COC(=O)c1cn(C)c3ccccc13)=C\CC[C@@]1(C)O[C@@H]21	True
COc1ccc2nc(-c3ccc(Cl)cc3)cc(C(=O)N3N=C(c4ccc(N)cc4)CC3c3ccccc3)c2c1 (configuration not stated)	False
CCOCCc1c(O)nc(SC)[nH]c1=O	False
CCOCc1cc(C(C)(C)C)ccc1O	False
COC(=O)c1ccc2c(c1)n(Cc1ccc3ccccc3c1)c[n+]2Cc1ccc2ccccc2c1	True
O=C1CS/C(=N/c2nnc(-c3ccc(O)cc3)s2)N1	False
C=C1C(=O)O[C@H]2[C@H]1CC/C(C=Nc1c(N)cc(F)cc1Br)=C\CC[C@@]1(C)O[C@@H]21	False
CSc1nc(-c2ccco2)c2c(N)[nH]nc2n1	False
O=C(Nc1nccs1)c1noc2ccccc12	False
COc1ccc(-c2cn(-c3ccc(Cl)cc3)c(=S)[nH]2)cc1OC	False
O=C(C[n+]1cccc2cc(Cl)ccc21)c1ccc2c(c1)CCCC2	True
CCOC(=O)c1sc(/N=C2\NC(=O)/C(=C/c3ccc(N4CCN(C)CC4)cc3)S2)nc1C	False
C=CCn1c(SCC(=O)Nc2ccc(C(=O)/C=C/c3cc(OC)c(OC)c(OC)c3)cc2)nnc1-c1ccc(Cl)cc1	False
COc1cccc(NC(=O)Nc2ccc(Nc3ncnc4[nH]c(C)c(C)c34)cc2)c1	False
C#C[C@@]1(O)[C@@H](CO)O[C@@H](n2cc(I)c3c(N)ncnc32)[C@@H]1O	True
C=C1C(=O)O[C@H]2[C@H]1CC/C(COC(=O)/C=C/c1cccnc1)=C\CC[C@@]1(C)O[C@@H]21	False
CCOCc1nc2ccccc2c(=O)[nH]1	False
C/C(=N/Nc1nc2ccccc2n1C)c1ccccn1	True
C=C(C)[C@@H]1CC[C@]2(C(=O)OCCCC[P+](c3ccccc3)(c3ccccc3)c3ccccc3)CC[C@]3(C)[C@H](CC[C@@H]4[C@@]5(C)CC[C@H](OC(=O)C(Cl)Cl)C(C)(C)[C@@H]5CC[C@]43C)[C@@H]12	True
Cc1nccc2c3ccc(OCc4cn(-c5ccc(Cl)cc5)nn4)cc3n(CC(C)C)c12	False
COc1cc2nc3c(=O)n(-c4ccc(C#N)cc4)cnn3c(=O)c2cc1OC	False
C=C(C)[C@@H]1CC[C@]2(C(=O)O)CC[C@]3(C)[C@H](CC[C@@H]4[C@@]5(C)C[C@@H](CC#Cc6ccccc6)C(=O)C(C)(C)[C@@H]5CC[C@]43C)[C@@H]12	False
N#Cc1c(-c2ccc(F)cc2)nc(N/N=C/c2cccc(O)c2)nc1N1CCOCC1	False
O=C(Nc1cc(Nc2ncccc2-c2ncnc3nc[nH]c23)ccc1F)c1cc(C(F)(F)F)cc(C(F)(F)F)c1	False
COCCOCCOCc1n(Cc2ccc3ccccc3c2)c2ccccc2[n+]1Cc1ccc2ccccc2c1	True
O=C1Nc2ccccc2C12C=C(c1ccccc1)Nc1c2c(-c2ccccc2)nn1-c1ccccc1 (configuration not stated)	False
Cc1c(Cl)cccc1NC(=O)c1sc2nc3c(cc2c1N)COCC3	False
O=c1[nH]c2ccccc2cc1-c1nc2ccc(Cl)cc2[nH]1	False
C=C(C)[C@@H]1CC[C@]2(C(=O)OCCOCCOCC[P+](c3ccccc3)(c3ccccc3)c3ccccc3)CC[C@]3(C)[C@H](CC[C@@H]4[C@@]5(C)CC[C@H](OC(C)=O)C(C)(C)[C@@H]5CC[C@]43C)[C@@H]12	True
O=C1NCc2ccc3c(-c4cccc(Cl)c4)c[nH]c3c21	False
O=CN1N=C(c2ccc3c(c2)OCO3)CC1c1cccc(Nc2ccnc3cc(C(F)(F)F)ccc23)c1 (configuration not stated)	False
Cc1nccc2c3ccc(OCc4cn(-c5ccc(Br)cc5)nn4)cc3n(CC(C)C)c12	False
COc1cc2nc3c(=O)n(CCN(C)C)cnn3c(=O)c2cc1OC	False
O=C(Nc1cccc(-c2cccc(F)c2)c1)C1CCN(Cc2cccc3cccnc23)CC1	False
Cc1cccc(C)c1NCc1nnc(-c2ccc(O)cc2)o1	False
COc1cc2cc(c1Cl)N(C)C(=O)C[C@H](OC(=O)[C@H](C)N(C)C(=O)CCS)C[C@]1(C)O[C@H]1[C@H](C)[C@@H]1C[C@@](O)(NC(=O)O1)[C@H](OC)/C=C/C=C(\C)C2	False
O=c1nc(-c2ccccc2)c2cc(-c3ccc(N4CCCC4)nc3)ccc2[nH]1	False

Source listed as PubChem BioAssay (NCI).
